- measured_target: human MC4R (Homo sapiens, UniProt P32245)
- Construct: host or cells: HEK-293 cells stably expressing the GScAMP22F split-luciferase cAMP sensor and hMC4R, G418 selection
- Sequence (P32245 whole entry): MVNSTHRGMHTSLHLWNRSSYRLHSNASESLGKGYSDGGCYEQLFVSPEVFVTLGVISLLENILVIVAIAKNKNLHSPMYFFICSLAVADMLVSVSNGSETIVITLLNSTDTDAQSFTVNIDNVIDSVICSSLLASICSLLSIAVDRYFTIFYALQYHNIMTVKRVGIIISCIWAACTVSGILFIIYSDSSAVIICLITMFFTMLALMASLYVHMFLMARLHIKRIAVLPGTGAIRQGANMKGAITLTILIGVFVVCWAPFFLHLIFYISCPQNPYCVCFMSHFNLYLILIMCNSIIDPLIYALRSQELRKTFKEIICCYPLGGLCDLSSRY
- experimental_protocol: split-luciferase cAMP sensor assay, agonist mode (measurement window 1), hMC4R
- Format: cell-based
- condition_summary: agonist mode, hMC4R stable cell line; read-out: MC4R cAMP % max activation
Positions of bridges follow the written chain, without caps; N, C: chain ends. Non-standard residues stand in square brackets, D forms with d. Residues, ends and D or L forms follow the SMILES beside them. dPhe(4-Br) = N[C@H](Cc1ccc(Br)cc1)C(=O)O; d2Nal = N[C@H](Cc1ccc2ccccc2c1)C(=O)O; Cit = NC(=O)NCCC[C@H](N)C(=O)O; Nle = CCCC[C@H](N)C(=O)O
Exercise: for every item that follows, state its recorded Emax.
Answers are plain numbers, in %.

compound	measured_target	unit_label	Emax
CC(=O)N[C@@H](CCCNC(=N)N)C(=O)N[C@H]1CSSC[C@@H](C(N)=O)NC(=O)[C@H](Cc2c[nH]c3ccccc23)NC(=O)[C@H](CCCNC(=N)N)NC(=O)[C@@H](Cc2ccc3ccccc3c2)NC(=O)[C@@H]2CCCN2C(=O)[C@@H](C)NC1=O [CTX-2203] (Ac-RC[dA]P[d2Nal]RWC-NH2; disulfide 2-8 (inferred))	human MC4R (Homo sapiens, UniProt P32245)	%	1.4

Quick one: give me Emax for each item below, same order please.
1. CCCC[C@H](NC(=O)[C@H](CCCNC(=N)N)NC(C)=O)C(=O)N[C@H]1CSSC[C@@H](C(N)=O)NC(=O)[C@@H](Cc2c[nH]c3ccccc23)NC(=O)[C@H](CCCNC(=N)N)NC(=O)[C@@H](Cc2ccc(OC)cc2)NC(=O)[C@H](CCCNC(=N)N)NC1=O [CTX-1615] (Ac-R[Nle]CR[dY](Me)R[dW]C-NH2; disulfide 3-8)
2. C[C@H]1NC(=O)[C@@H](NC(=O)[C@H](CCCNC(=N)N)NC(=O)COCCOCCNC(=O)COCCOCCNC(=O)CNC(=O)CCc2ccc(I)cc2)CSSC[C@@H](C(N)=O)NC(=O)[C@@H](Cc2c[nH]c3ccccc23)NC(=O)[C@H](CCCNC(=N)N)NC(=O)[C@@H](Cc2ccc(Br)cc2)NC(=O)[C@H](CCCNC(=N)N)NC1=O
3. CC(=O)N[C@@H](CCCNC(=N)N)C(=O)N[C@H]1CSSC[C@@H](C(N)=O)NC(=O)[C@@H](Cc2ccccc2)NC(=O)[C@H](CCCNC(=N)N)NC(=O)[C@@H](Cc2ccc(Br)cc2)NC(=O)[C@H](CCCNC(=N)N)NC(=O)[C@@H](C)NC1=O [CTX-1255] (Ac-RC[dA]R[dPhe(4-Br)]R[dF]C-NH2; disulfide 2-8 (inferred))
4. CC(=O)N[C@@H](CCCNC(=N)N)C(=O)N[C@H]1CSSC[C@@H](C(N)=O)NC(=O)[C@@H](Cc2c[nH]c3ccccc23)NC(=O)[C@H](CCCNC(N)=O)NC(=O)[C@@H](Cc2ccc(Br)cc2)NC(=O)[C@H](CCCNC(=N)N)NC(=O)[C@@H](C)NC1=O [CTX-1253] (Ac-RC[dA]R[dPhe(4-Br)][Cit][dW]C-NH2; disulfide 2-8 (inferred))

### Response
1. 68
2. 71
3. 60
4. 58

### Prompt Tell me the measured Emax of COc1ccc(C[C@H]2NC(=O)[C@H](CCCNC(=N)N)NC(=O)[C@@H](C)NC(=O)[C@@H](NC(=O)[C@H](CCCNC(=N)N)NC(C)=O)CSSC[C@@H](C(N)=O)NC(=O)[C@@H](Cc3c[nH]c4ccccc34)NC(=O)[C@H](CCCNC(=N)N)NC2=O)cc1 [CTX-1238] (Ac-RC[dA]R[dY](Me)R[dW]C-NH2; disulfide 2-8 (inferred)) , please.
### Response 79
